As shown below, each of these molecules has a reported AUC(0-t) value.
Assay: Test 1 (Pharmacokinetics Study), oral administration to mice, serum drug concentration by HPLC
Type: in vivo
Settings: male, BDF1, mouse, oral 200 mg/kg, mice fasting for 16 hours, 1-24 hours after administration, read-out: AUC1h-24h
Write the answer as a number in ng·h/mL, unit excluded.

In the examples that follow, each entry is paired with its recorded AUC(0-t).
molecule | AUC(0-t) (ng·h/mL)
COc1cccc2c1nc(C(F)F)n2-c1nc(N2CCOCC2)cc(N2CCO[C@@H](C)[C@H]2C)n1 (relative stereo) | 87000
C[C@@H]1CN(c2cc(N3CCOCC3)nc(-n3c(C(F)F)nc4c(O)cccc43)n2)C[C@H](C)O1 | 17000
COc1cccc2c1nc(C(F)F)n2-c1nc(N2CCOCC2)cc(N2CCOC(C)(C)C2)n1 | 146000
COc1cccc2c1nc(C(F)F)n2-c1nc(N2CCOCC2)cc(N2C[C@H](C)O[C@@H](C)C2)n1 (relative stereo) | 138000
COc1cccc2c1nc(C(F)F)n2-c1nc(N2CCOCC2)cc(N2C[C@@H](C)O[C@@H](C)C2)n1 | 332000

For the molecule shown here, C[C@H]1CN(c2cc(N3CCOCC3)nc(-n3c(C(F)F)nc4c(O)cccc43)n2)C[C@H](C)O1 (relative stereo) [compound D, reference compound] , give the reported AUC(0-t). 68000

I have this molecule here, CC1(C)CN(c2cc(N3CCOCC3)nc(-n3c(C(F)F)nc4c(O)cccc43)n2)CCO1 [compound B, reference compound] , and I need its recorded AUC(0-t). 5000

What value of AUC(0-t) has been recorded for this entry: C[C@@H]1OCCN(c2cc(N3CCOCC3)nc(-n3c(C(F)F)nc4c(O)cccc43)n2)[C@@H]1C (relative stereo) [compound C, reference compound] 17000

For `CCOc1cccc2c1nc(C(F)F)n2-c1nc(N2CCOCC2)cc(N2CCOC(C)(C)C2)n1` , what is its reported AUC(0-t)? 88000
